System: Echinochloa crus-galli (ECHCG)
Test method notes: Test Example 1 pre-emergence herbicidal activity
Assay type: in vivo
Stated conditions: Echinochloa crus-galli, 480 h, rate 250 g/ha, evaluated 20 days later, read-out: Pre-emergence activity ECHCG (100=total damage to plant; 0=no damage to plant)
Record form. Attribute: pest or weed control at 250 g/ha. Fill in for each entry.
Numbers only, in %.

Solved cases (5 shown):
CSC[C@]12CC[C@H](O1)[C@@H]1C(=O)C(c3c(C)cc(C)cc3C)=C(O)[C@@H]12
0
CCc1cc(C)cc(CC)c1C1=C(O)[C@@H]2[C@@H]3O[C@@H](C[C@H]3c3cc(F)cc(F)c3)[C@@H]2C1=O
70
CCc1cc(C)cc(CC)c1C1=C(O)[C@@H]2[C@@H]3O[C@@H](C[C@H]3c3cccc(C)c3)[C@@H]2C1=O
70
CCc1cc(C)cc(CC)c1C1=C(OC(=O)OCC(C)C)[C@H]2[C@@H](C1=O)[C@@H]1CC[C@H]2O1 (racemic)
100
CCc1cc(C)cc(CC)c1C1=C(O)[C@@H]2[C@@H]3O[C@@H](C[C@H]3c3cccc(OC)c3)[C@@H]2C1=O
70

In the following, a different compound is considered.
For reference, reported pest or weed control at 250 g/ha for Cc1cc(C)c(C2=C(O)[C@@H]3[C@@H]4O[C@@H](C[C@H]4C)[C@@H]3C2=O)c(C)c1 stands at 100

----------
System: Avena fatua (AVEFA)
Test method notes: Test Example 1 post-emergence herbicidal activity
Type: in vivo
Stated conditions: 360 h, rate 125 g/ha, evaluated 15 days later, read-out: Post-emergence activity AVEFA (100=total damage to plant; 0=no damage to plant)
Quantity name: pest or weed control at 125 g/ha (%)
Give bare numbers, in %.

Cc1cc(C)c(C2=C(O)[C@@H]3[C@@H]4O[C@@H](C[C@H]4c4cnc5ccccc5n4)[C@@H]3C2=O)c(C)c1
70
CCc1cc(C)cc(CC)c1C1=C(O)[C@H]2[C@@H](C1=O)[C@@H]1CC[C@H]2O1
70
CC[C@]12CC[C@H](O1)[C@@H]1C(=O)C(c3c(C)cc(C)cc3C)=C(O)[C@@H]12
70
CCCCC[C@]12C=C[C@H](O1)[C@@H]1C(=O)C(c3c(C)cc(C)cc3C)=C(O)[C@@H]12 (racemic)
0
CC[C@@H]1C[C@@H]2O[C@H]1[C@H]1C(O)=C(c3c(C)cc(C)cc3C)C(=O)[C@H]12
80

Hello, I would appreciate it if you could give pest or weed control at 125 g/ha for each entry below.
1. Cc1cc(C)c(C2=C(O)[C@@H]3[C@@H]4O[C@@H](C[C@H]4c4cnccn4)[C@@H]3C2=O)c(C)c1
2. CC1=C2CCC(C)C[C@@]23O[C@@H]1C1C(=O)C(c2c(C)cc(C)cc2C)=C(O)C13 (some centres unmarked)
3. CCc1cc(C)cc(CC)c1C1=C(O)[C@@H]2[C@@H]3O[C@@H](C[C@H]3c3cc(C(F)(F)F)ccc3Cl)[C@@H]2C1=O
4. CCc1cc(C)cc(CC)c1C1=C(O)[C@@H]2[C@@H]3O[C@@H](C[C@H]3c3ccc([N+](=O)[O-])cc3Cl)[C@@H]2C1=O
5. CCc1cc(C)cc(CC)c1C1=C(O)[C@@H]2[C@@H]3O[C@@H](C[C@H]3c3cccc(OC)c3)[C@@H]2C1=O
6. CCC1=NOC2C1[C@@H]1O[C@H]2[C@H]2C(O)=C(c3c(CC)cc(C)cc3CC)C(=O)[C@H]21 (some centres unmarked)

Ans:
1: 10; 2: 0; 3: 10; 4: 50; 5: 80; 6: 40

Hello, I would appreciate it if you could give pest or weed control at 125 g/ha for each entry below.
1. Cc1cc(C)c(C2=C(OC(=O)C(C)(C)C)[C@H]3[C@@H](C2=O)[C@@H]2CC[C@H]3O2)c(C)c1 (racemic)
2. COC[C@H]1C[C@@H]2O[C@H]1[C@H]1C(O)=C(c3c(C)cc(C)cc3C)C(=O)[C@H]12
3. CC1=C[C@@H]2O[C@H]1[C@H]1C(O)=C(c3c(C)cc(C)cc3C)C(=O)[C@H]12 (racemic)
4. CCc1cc(C)cc(CC)c1C1=C(O)[C@@H]2[C@@H]3O[C@@H](C[C@H]3c3ccc(C)cc3Cl)[C@@H]2C1=O
5. CCC(=O)OC[C@]12C=C[C@H](O1)[C@@H]1C(=O)C(c3c(C)cc(C)cc3C)=C(O)[C@@H]12
6. Cc1cc(C)c(C2=C(O)[C@@H]3[C@@H]4O[C@@H](C[C@H]4c4cccc(C#N)c4)[C@@H]3C2=O)c(C)c1
7. Cc1cc(C)c(C2=C(O)[C@@H]3[C@@H]4O[C@@H](C[C@H]4c4ccc(F)nc4)[C@@H]3C2=O)c(C)c1
8. CCc1cc(C)cc(CC)c1C1=C(O)[C@@H]2[C@@H]3O[C@@H](C[C@H]3c3ccc(C)c(F)c3)[C@@H]2C1=O

Ans:
70
90
50
60
40
80
80
80

Hello, I would appreciate it if you could give pest or weed control at 125 g/ha for each entry below.
1. CCc1cc(C)cc(CC)c1C1=C(O)[C@@H]2[C@@H]3O[C@@H](C[C@H]3c3ccc(C)cc3)[C@@H]2C1=O (racemic)
2. Cc1cc(C)c(C2=C(O)[C@@H]3[C@@H]4O[C@@H](C[C@H]4c4ccc(OC(F)(F)F)cc4)[C@@H]3C2=O)c(C)c1
3. CCc1cc(C)cc(CC)c1C1=C(O)[C@H]2[C@@H](C1=O)[C@]1(C)CC[C@@]2(C)O1
4. C#CCOC(=O)OC1=C(c2c(CC)cc(C)cc2CC)C(=O)[C@@H]2[C@H]1[C@H]1CC[C@@H]2O1 (racemic)

Ans:
1: 70; 2: 90; 3: 90; 4: 90

Hello, I would appreciate it if you could give pest or weed control at 125 g/ha for each entry below.
1. Cc1cc(C)c(C2=C(O)[C@H]3[C@@H](C2=O)[C@@H]2CC[C@H]3O2)c(C)c1
2. CCc1cc(C)cc(CC)c1C1=C(O)[C@@H]2[C@@H]3O[C@@H](C[C@H]3c3cc(F)ccc3C)[C@@H]2C1=O
3. CCc1cc(C)cc(CC)c1C1=C(OC(=O)C(C)C)[C@H]2[C@@H](C1=O)[C@@H]1CC[C@H]2O1

Ans:
1. 30
2. 90
3. 100
